Where do these numbers come from? They come from patent US20210113560A1.

- target-under-test: CAPN2 (Homo sapiens, UniProt P17655)
- Sequence (P17655 20-700 limits assumed): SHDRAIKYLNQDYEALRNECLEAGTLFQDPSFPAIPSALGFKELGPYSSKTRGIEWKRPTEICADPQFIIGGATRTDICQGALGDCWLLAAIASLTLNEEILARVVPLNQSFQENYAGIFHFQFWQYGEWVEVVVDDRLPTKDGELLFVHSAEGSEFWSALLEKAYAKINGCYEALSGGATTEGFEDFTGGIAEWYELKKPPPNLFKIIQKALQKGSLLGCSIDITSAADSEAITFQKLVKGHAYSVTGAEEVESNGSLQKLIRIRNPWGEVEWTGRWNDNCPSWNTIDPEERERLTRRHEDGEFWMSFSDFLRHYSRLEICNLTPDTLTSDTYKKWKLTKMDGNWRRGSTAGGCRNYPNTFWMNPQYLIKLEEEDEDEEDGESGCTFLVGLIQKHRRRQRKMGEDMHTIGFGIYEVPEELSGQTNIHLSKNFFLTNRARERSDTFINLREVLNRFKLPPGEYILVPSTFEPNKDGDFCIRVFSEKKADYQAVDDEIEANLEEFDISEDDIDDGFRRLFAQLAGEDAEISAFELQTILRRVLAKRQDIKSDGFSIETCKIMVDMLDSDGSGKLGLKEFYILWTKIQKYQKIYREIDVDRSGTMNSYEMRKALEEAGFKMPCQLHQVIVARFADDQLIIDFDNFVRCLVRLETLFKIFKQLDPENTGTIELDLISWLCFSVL
- Sequence (P04632 whole entry partner): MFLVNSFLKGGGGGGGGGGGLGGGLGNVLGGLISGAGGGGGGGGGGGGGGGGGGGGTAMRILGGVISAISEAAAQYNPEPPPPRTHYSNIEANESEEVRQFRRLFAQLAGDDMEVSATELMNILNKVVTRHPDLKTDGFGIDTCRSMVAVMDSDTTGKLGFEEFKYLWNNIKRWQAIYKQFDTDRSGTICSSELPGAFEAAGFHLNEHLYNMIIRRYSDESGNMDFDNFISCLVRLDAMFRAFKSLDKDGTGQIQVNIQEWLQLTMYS
- method: Activity based probe (ABP) off-rate assay of CAPN2 inhibitors, SDS-PAGE readout
- Assay type: binding
- assay-setup: t1/2=0.693/k from first order decay fit; complex diluted ten-fold into 10 uM ABP; time points 0-24 hours
- Protocol: FIG. 2: Dissociation of Compound 10 from calpain 2 (CAPN2). Complexes of Compound 10 with CAPN2 were generated, followed by dilution into an excess of Compound 29 (a probe for unbound CAPN2). Samples were taken at the time points (lanes 1-6 for 0, 1, 2, 4, 7 and 24 hr respectively) and analyzed by gel electrophoresis to determine the amount of Compound 29 probe incorporation. […] The dissociation rate and half-life for the Compound 10-CAPN2 complex was then calculated. […]
Peptide text beside a SMILES is read from it. * marks the point of attachment. Cbz = O=C(OCc1ccccc1)*
Label scheme for Half-life of Compound-CAPN2 Complex: lower than 0.9 h is false, 0.9 h and above is true.

molecule | classification
Cc1nc(-c2cccc(F)c2)c(C(=O)NC(Cc2ccccc2)C(=O)C(N)=O)o1 (stereo not shown) | true
CC[C@H](NC(=O)[C@H](CC(C)C)NC(=O)OCc1ccccc1)C(=O)C(=O)NCc1cc(OC)cc(OC)c1 | true
CC(C)C(NC(=O)OCc1ccccc1)C(=O)NC(Cc1ccccc1)C(=O)C(N)=O (stereo not shown) | true
NC(=O)C(=O)C(Cc1ccccc1)NC(=O)c1nsnc1-c1cccc2c1OC(F)(F)O2 (stereo not shown) [Compound 2] | true
CC(C)[C@@H](NC(=O)CCCNC(=O)CCCCCC1(C)C(/C=C/C=C/C=C2/N(CCCS(=O)(=O)O)c3ccccc3C2(C)C)=[N+](CCCS(=O)(=O)O)c2ccc(S(=O)(=O)O)cc21)C(=O)NC(Cc1ccccc1)C(=O)CF (stereo partly shown) | true
NC(=O)C(=O)C(Cc1ccccc1)NC(=O)c1nsnc1-c1cccc(F)c1 (stereo not shown) | true
CC(C)[C@H](NC(=O)OCc1ccccc1)C(=O)N[C@H](C=O)Cc1ccccc1 [Compound 28] (Cbz-Val-Phe-aldehyde) | true
NC(=O)C(=O)C(Cc1ccccc1)NC(=O)c1nsnc1-c1ccccn1 (stereo not shown) | true
Cn1cc(C(=O)NC(Cc2ccccc2)C(=O)C(N)=O)c(-c2cccc3cn[nH]c23)n1 (stereo not shown) | false
NC(=O)C(=O)C(Cc1ccccc1)NC(=O)c1cn(C2CC2)nc1-c1ccccc1 (stereo not shown) | false
O=C(NC1CC1)C(=O)C(Cc1ccccc1)NC(=O)[C@H]1CCC(=O)N1Cc1ccccc1 (stereo partly shown) | false
NC(=O)C(=O)C(Cc1ccccc1)NC(=O)c1nsnc1-c1cnccn1 (stereo not shown) | true
NC(=O)C(=O)C(Cc1ccccc1)NC(=O)c1cn(C(F)F)nc1-c1cccc2cnccc12 (stereo not shown) | true
Cc1nc(-c2ccccc2F)c(C(=O)NC(Cc2ccccc2)C(=O)C(N)=O)o1 (stereo not shown) | true
Cn1cc(C(=O)NC(Cc2ccccc2)C(=O)C(N)=O)c(-c2ccccc2F)n1 (stereo not shown) | false
O=C(O)C(=O)C(Cc1ccccc1)NC(=O)c1nsnc1-c1ccccc1 (stereo not shown) | true
Cc1cc(C(=O)N[C@@H](Cc2ccccc2)C(=O)C(N)=O)n(-c2ccccc2)n1 | true
Cc1nc(-c2ccccc2F)c(C(=O)NC(Cc2ccccc2)C(=O)C(=O)O)o1 (stereo not shown) | false
Cc1cncc(-c2nn(C(F)F)cc2C(=O)NC(Cc2ccccc2)C(=O)C(N)=O)c1 (stereo not shown) | false
NC(=O)C(=O)C(Cc1ccccc1)NC(=O)c1nsnc1-c1cccc2c1OC(F)(F)O2 (stereo not shown) [Compound 31] | true
Cn1cc(C(=O)NC(Cc2ccccc2)C(=O)C(N)=O)c(-c2cccc3c2OC(F)(F)O3)n1 (stereo not shown) | false
NC(=O)C(=O)C(Cc1ccccc1)NC(=O)c1nsnc1-c1ccncn1 (stereo not shown) | true
NC(=O)C(=O)C(Cc1ccccc1)NC(=O)c1c(C(F)(F)F)ccc(Cl)c1F (stereo not shown) | true
Cc1nc(-c2ccccc2)c(C(=O)NC(Cc2ccccc2)C(=O)C(N)=O)o1 (stereo not shown) | true
Cc1c(F)cccc1-c1nsnc1C(=O)NC(Cc1ccccc1)C(=O)C(N)=O (stereo not shown) | false
Cn1cc(C(=O)N[C@@H](Cc2ccccc2)C(=O)C(N)=O)c(-c2ccccc2)n1 | false
Cn1cc(C(=O)NC(Cc2ccccc2)C(=O)C(N)=O)c(-c2cccc3oc(=O)[nH]c23)n1 (stereo not shown) | false
Cc1cc(C(=O)NC(Cc2ccccc2)C(=O)C(N)=O)n(-c2ccccn2)n1 (stereo not shown) | false
